Hello, the source for this data is ChEMBL document CHEMBL3525983, in case you need it.

RUN_DESCRIPTION: Tmax in F344/DuCrlCrlj rat at 0.1 mg/kg, po administered via gavage by LC-MS/MS analysis
Assay type: ADME, organism-based
Set-up: dose 0.1 mg/kg, dosed compound name [14C]Rivoglitazone, route oral
MEASUREMENT_CONDITIONS: in vivo
READOUT: Tmax (h)
Answers are plain numbers, in h.

So what does the record say about Tmax for COc1ccc2nc(COc3ccc(CC4SC(=O)NC4=O)cc3)n(C)c2c1.Cl (racemic) ?
3.25

###

RUN_DESCRIPTION: Drug excretion in F344/DuCrlCrlj rat urine treated with [14C]rivoglitazone at 1 mg/kg, po administered via gavage measured during 0 to 48 hrs by radio-HPLC analysis
Format: ADME, organism-based
Design: dose 1 mg/kg, dosed compound name [14C]Rivoglitazone, route oral
MEASUREMENT_CONDITIONS: in vivo
Consider the following molecules; for each one, report its Compound recovery.
Give bare numbers, in %.

> print(dat)
                                   molecule  units  val
1  Cn1c(COc2ccc(CC3SC(=O)NC3=O)cc2)nc2ccc(OS(=O)(=O)O)cc21 (centres undefined)      %   10
2  CSC(Cc1ccc(OCc2nc3ccc(O[C@@H]4O[C@H](C(=O)O)[C@@H](O)[C@H](O)[C@H]4O)cc3n2C)cc1)C(N)=O (some centres undefined)      %  0.7
3  COc1ccc2nc(COc3ccc(CC(C(N)=O)[S+](C)[O-])cc3)n(C)c2c1 (centres undefined)      %  3.9

We next turn to a different molecule, shown below.
So what does the record say about Compound recovery for COc1ccc2nc(COc3ccc(CC(C(N)=O)S(C)(=O)=O)cc3)n(C)c2c1 (centres undefined) ?
1

###

RUN_DESCRIPTION: Oral bioavailability in monkey at 0.493 mg/kg administered via gavage by LC-MS/MS analysis
Assay type: ADME, organism-based, Macaca mulatta
Set-up: dosed compound name [14C]Rivoglitazone
MEASUREMENT_CONDITIONS: rhesus monkey, in vivo
READOUT: bioavailability (%)
Numbers only, in %.

So what does the record say about bioavailability for COc1ccc2nc(COc3ccc(CC4SC(=O)NC4=O)cc3)n(C)c2c1.Cl (racemic) ?
90.4

###

Test system: Rhesus monkey
RUN_DESCRIPTION: Drug level in monkey plasma treated with [14C]rivoglitazone assessed as ratio of molar basis AUC (0 to t) at 1 mg/kg, po administered via gavage by LC-MS/MS analysis
Type: ADME, organism-based, Macaca mulatta
Design: dose 1 mg/kg, dosed compound name [14C]Rivoglitazone, route oral
MEASUREMENT_CONDITIONS: in vivo
Returns one of T or F; T when AUCmet/AUCp is >= 0.6%.

// known answers, use as guide
> print(dat)
                                   compound  category
1  COc1ccc2nc(COc3ccc(CC4SC(=O)N([C@@H]5O[C@H](C(=O)O)[C@@H](O)[C@H](O)[C@H]5O)C4=O)cc3)n(C)c2c1 (stereo not given in full)         T
2  COc1ccc2nc(COc3ccc(CC(C(N)=O)S(C)(=O)=O)cc3)n(C)c2c1 (stereo not given)         F
3  Cn1c(COc2ccc(CC3SC(=O)NC3=O)cc2)nc2ccc(O)cc21 (stereo not given)         T
4  Cn1c(COc2ccc(CC3SC(=O)NC3=O)cc2)nc2ccc(OS(=O)(=O)O)cc21 (stereo not given)         T

Kindly review the next compound as well.
Confirm if AUCmet/AUCp reported for the compound COc1ccc2nc(COc3ccc(CC(C(N)=O)[S+](C)[O-])cc3)n(C)c2c1 (stereo not given) is 0.6% or above.
F

###

RUN_DESCRIPTION: Volume of distribution at steady state in monkey at 0.493 mg/kg, iv administered via tail vein by LC-MS/MS analysis
Type: ADME, organism-based, Macaca mulatta
Parameters: dose 0.493 mg/kg, dosed compound name [14C]Rivoglitazone, route intravenous
MEASUREMENT_CONDITIONS: rhesus monkey, in vivo, read-out: Vdss
READOUT: Vd (L/kg)
Numbers only, in L/kg.

So what does the record say about Vd for COc1ccc2nc(COc3ccc(CC4SC(=O)NC4=O)cc3)n(C)c2c1.Cl (racemic) ?
0.155

###

RUN_DESCRIPTION: AUC (0 to infinity) in F344/DuCrlCrlj rat at 0.1 mg/kg, po administered via gavage by LC-MS/MS analysis
Format: ADME, organism-based
Set-up: time infinity, dose 0.1 mg/kg, dosed compound name [14C]Rivoglitazone, route oral
MEASUREMENT_CONDITIONS: plasma
READOUT: AUC(0-inf) (ng·h/mL)
Give bare numbers, in ng·h/mL.

So what does the record say about AUC(0-inf) for COc1ccc2nc(COc3ccc(CC4SC(=O)NC4=O)cc3)n(C)c2c1.Cl (racemic) ?
4450

###

RUN_DESCRIPTION: Retention time of the compound by LC-MS/MS analysis
Assay type: physicochemical
Parameters: dosed compound name [14C]Rivoglitazone
Sorting guide: entries reporting Retention_time beneath 20 min go in the Y pile, the rest go in the N pile.

Field: below-cutoff. Rule: recorded Retention_time strictly less than 20 min. Subject: COc1ccc2nc(COc3ccc(CC4(O)SC(=O)NC4=O)cc3)n(C)c2c1 (centres undefined)
N

Field: below-cutoff. Rule: recorded Retention_time strictly less than 20 min. Subject: Cn1c(COc2ccc(CC(C(N)=O)[S+](C)[O-])cc2)nc2ccc(OS(=O)(=O)O)cc21 (centres undefined)
Y

Field: below-cutoff. Rule: recorded Retention_time strictly less than 20 min. Subject: Cn1c(COc2ccc(CC(C(N)=O)S(C)(=O)=O)cc2)nc2ccc(OS(=O)(=O)O)cc21 (centres undefined)
Y

Field: below-cutoff. Rule: recorded Retention_time strictly less than 20 min. Subject: CSC(Cc1ccc(OCc2nc3ccc(O[C@@H]4O[C@H](C(=O)O)[C@@H](O)[C@H](O)[C@H]4O)cc3n2C)cc1)C(N)=O (some centres undefined)
Y

Field: below-cutoff. Rule: recorded Retention_time strictly less than 20 min. Subject: Cn1c(COc2ccc(CC3SC(=O)NC3=O)cc2)nc2ccc(OS(=O)(=O)O)cc21 (centres undefined)
Y

Field: below-cutoff. Rule: recorded Retention_time strictly less than 20 min. Subject: COc1ccc2nc(COc3ccc(CC(C(N)=O)S(C)(=O)=O)cc3)n(C)c2c1 (centres undefined)
Y

Field: below-cutoff. Rule: recorded Retention_time strictly less than 20 min. Subject: COc1ccc2nc(COc3ccc(CC(C(N)=O)[S+](C)[O-])cc3)n(C)c2c1 (centres undefined)
Y

Field: below-cutoff. Rule: recorded Retention_time strictly less than 20 min. Subject: COc1ccc2nc(COc3ccc(CC4SC(=O)NC4=O)cc3)[nH]c2c1 (centres undefined)
N

###

RUN_DESCRIPTION: Tmax in monkey at 0.0986 mg/kg, po administered via gavage by LC-MS/MS analysis
Format: ADME, organism-based, Macaca mulatta
Design: dose 0.0986 mg/kg, dosed compound name [14C]Rivoglitazone, route oral
MEASUREMENT_CONDITIONS: rhesus monkey, in vivo
READOUT: Tmax
A complete answer gives the number and then names the unit.

So what does the record say about Tmax for COc1ccc2nc(COc3ccc(CC4SC(=O)NC4=O)cc3)n(C)c2c1.Cl (racemic) ?
3 h

###

RUN_DESCRIPTION: Apparent total clearance in monkey at 0.0986 mg/kg, po administered via gavage by LC-MS/MS analysis
Assay type: ADME, organism-based, Macaca mulatta
Set-up: dose 0.0986 mg/kg, dosed compound name [14C]Rivoglitazone, route oral
MEASUREMENT_CONDITIONS: rhesus monkey, in vivo, read-out: CLt/F
READOUT: CL/F (mL/min/kg)
One number for each entry, in mL/min/kg.

So what does the record say about CL/F for COc1ccc2nc(COc3ccc(CC4SC(=O)NC4=O)cc3)n(C)c2c1.Cl (racemic) ?
0.432

###

RUN_DESCRIPTION: AUC (0 to t) in F344/DuCrlCrlj rat at 0.5 mg/kg, iv administered via tail vein by LC-MS/MS analysis
Assay type: ADME, organism-based
Set-up: dose 0.5 mg/kg, dosed compound name [14C]Rivoglitazone, route intravenous
MEASUREMENT_CONDITIONS: plasma
READOUT: AUC(0-t) (ng·h/mL)
Give bare numbers, in ng·h/mL.

So what does the record say about AUC(0-t) for COc1ccc2nc(COc3ccc(CC4SC(=O)NC4=O)cc3)n(C)c2c1.Cl (racemic) ?
22300

###

RUN_DESCRIPTION: Total clearance in F344/DuCrlCrlj rat at 0.5 mg/kg, iv administered via tail vein by LC-MS/MS analysis
Assay type: ADME, organism-based
Design: dose 0.5 mg/kg, dosed compound name [14C]Rivoglitazone, route intravenous
MEASUREMENT_CONDITIONS: in vivo
READOUT: clearance

So what does the record say about clearance for COc1ccc2nc(COc3ccc(CC4SC(=O)NC4=O)cc3)n(C)c2c1.Cl (racemic) ?
0.333 mL/min/kg
